Run description: yeast display, Sf9 membrane polyspecificity reagent, FACS + sequencing; frameworks hold sequencing errors
Experimental endpoint: polyreactivity (PSR sort gate)

See these solved cases before continuing.
* QVQLVESGGGLVQAGGSLRLSCAASGFIFVPYAMGWYRQAPGKERELVATITWRGDSTYYADSVKGRFTISRDNAKNTVYLQMNSLKPEDTAVYYCAAVGPIRGYSSDEYWGQGTQVTVSS | low polyreactivity
* QVQLVESGGGLVQAGGSLRLSCAASGRIFPSYAMGWYRQAPGKERELVAGIRSGGGSTYYADSVKGRFTISRDNAKNTVYLQMNSLKPEDTAVYYCAADPGLYGDYPLAEDYWGQGTQVTVSS | low polyreactivity
* QVQLVESGGVLVQAGGSLRLSCAASGSIFGNYAMGWYRQAPGKETELVAAISYRGGSTYYADSVKGRFTISRDNAKNTVYLQMNSLKPEDTAVYYCNAGGRRRIFAHSSTGDYWGQGTQVTVSS | high polyreactivity
* QVQLVESGGGLVQAGGSLRLSCAASGSTFGVYTMGWYRQAPGKERELVAAITKSGGSTYYADSVKGRFTISRDNAKNTVYLQMNSLKPEDTAVYYCNTDYGRYLYYRYGYWGQGTQVTVSS | low polyreactivity

Requested field: polyreactivity (PSR sort gate). Item: QDQLVESGGGLVQPGGSLRLSCAASGSTFANYAMGWYRQAPGNERQLVAALDHSGGSTYYADSVKGRFTISRDNAKNPVYLQMNSLKPEDTAVYYCNVVNGWLDVSSPDDSLAYLYDYWGQGSQVTVSS
low polyreactivity

// returns reported polyreactivity (PSR sort gate) for input QVQLVESGGGLVQAGGSLRLSCAASGSIFYDNAMGWYRQAPGKERELVAAISGNDATTYYADSVKGRFTISRDNAKNTVYLQMNSLKPEDTAVYSCAADYVLNPWRTRYDYWGQGTQVTVSS
low polyreactivity

Recorded polyreactivity (PSR sort gate) for QVQLVESGGGLVQAGGSLRLSCAASGSIYYNAMGWYRQAPGKERELVAAISTSGGTTYYADSVKGRFTISRDNAKNTVYLQMNSLKPEDTAVYYCNALSVPDYDYWGQGTQVTVSS , please?
high polyreactivity

Query: polyreactivity (PSR sort gate); subject: QVQLVESGGGLVQAGGSLRLSCAASGSTFKYNAMGWYRQAPGKERELVATISGTGGSTYYADSVKGRFTISRDNAKNTVYLQMNSLKPEDTAVYYCAARWGRSQLRYYYWGQGTQVTVSS
high polyreactivity

Entry QVQLVESGGGLVQAGGSLRLSCAASGFIFPVNAMGWYRQAAGKERELVAAITSSGGDTYYADSVKGRFTISRDNAKNTVYLQMNSLKPEDTAVYYCAAEYTQEQEDYDYWGQGTQLTVSS : reported polyreactivity (PSR sort gate) = ?
low polyreactivity

Item QVQLVESGGGLVQAGASLRLSCAASGLIFIHYAMGWYRQAPGKERELVATISRSGVRTYYADSVKGRFTISRDNAKNTVYLQMNSLKPEDTAVYYCAADYTTNFWGYRYNYWGQGTQVTVSS has what recorded polyreactivity (PSR sort gate)?
low polyreactivity

If you can, please state the reported polyreactivity (PSR sort gate) value of QVQLVESGGGLVQAGGSLRLSCSASGTTFRGYAMGWYRQAPGKEREVVAAISNNGVTTYYADSVKGRFTISRDNAKNTVYLQMNSLKPEDAAVYYCAAGLYHGFAASDEIRGDYWGLGTQVTVSS .
low polyreactivity
